system: HepG2-GM130-SQSTM1; assay: lowest phenotypically active concentration; higher = less potent; conditions: treatment time: 24 h
quantity-measured: lowest phenotypically active concentration (µM)

compound | units-text | op | experimental-result
Cc1nc(NC(=O)N2CCC[C@H]2C(N)=O)sc1-c1csc(C(C)(C)C)n1 | µM | = | 3
CCCc1cc(C)n(C)c(=O)c1CN(C)C(=O)c1cc(-c2ccc(N3CCN(C(C)C)CC3)nc2)cc2c1cnn2C(C)C | µM | = | 3
CN1C/C(=C/c2ccc(B(O)O)cc2)C(=O)/C(=C/c2ccc(B(O)O)cc2)C1 | µM | = | 3
COc1cc(/C=C/c2ccc(OC)cc2OC)cc(OC)c1 | µM | = | 3
COc1cc(C[C@H]2C(=O)OC[C@@H]2Cc2ccc(OC)c(OC)c2)ccc1O [Arctigenin] | µM | = | 9
COc1c(C)cnc(Cn2cc(C#CCC(C)(C)O)c3c(Cl)nc(N)nc32)c1C | µM | ≤ | 0.3
O=C1NC(=O)C(c2ccccc2[N+](=O)[O-])=C1Nc1ccc(O)c(Cl)c1 | µM | = | 9
O=C(OC12CC3CC(CC(C3)C1)C2)c1ccc(NCc2cc(O)ccc2O)cc1 [Adaphostin] | µM | = | 3
COc1ccccc1OCCNCC(O)COc1cccc2[nH]c3ccccc3c12 (stereo not given) [Carvedilol] | µM | = | 9
NC(=O)c1cccc(-c2cc(Nc3ccc(OC(F)(F)F)cc3)ncn2)c1 | µM | = | 9

* * *

test system: WPMY1-TP53BP1-CLTA; experiment: lowest phenotypically active concentration; higher = less potent; details: treatment time: 24 h
Counter-ions that a name gives are not always drawn.
quantity-measured: lowest phenotypically active concentration (µM)

compound | op | experimental-result
Nc1ncn([C@@H]2O[C@H](CO)[C@@H](O)[C@H]2O)c(=O)n1 | = | 3
Cc1nc(NC(=O)N2CCC[C@H]2C(N)=O)sc1-c1ccnc(C(C)(C)C(F)(F)F)c1 | = | 3
Nc1ccn([C@@H]2O[C@H](CO)[C@@H](O)[C@@H]2O)c(=O)n1 | ≤ | 0.3
O=C1N=C(NCc2cccs2)S/C1=C\c1ccc2ncccc2c1 | = | 3
COCC(=O)O[C@]1(CCN(C)CCCc2nc3ccccc3[nH]2)CCc2cc(F)ccc2[C@@H]1C(C)C | = | 9
COc1cc(O)cc(O)c1C(=O)/C=C/c1ccccc1 | = | 9
Cc1ccc(NC(=O)CCCCCC(=O)Nc2ccccc2N)cc1 | = | 3
C=CC(=O)Nc1cccc(CN2C(=O)N(c3c(Cl)c(OC)cc(OC)c3Cl)Cc3cnc(NCCCCN(CC)CC)nc32)c1 [FIIN 1 hydrochloride] | ≤ | 0.3

* * *

tested on: WPMY1-TP53BP1-CLTA; assay: phenotypically active (imaging signature differs from DMSO and reproducible) at any of 0.3-9 uM (binary (1 = active, 0 = inactive)); higher = active; details: treatment time: 24 h
Each entry below carries its reported phenotypically active.
quantity-measured: phenotypically active

molecule | tested-system | experimental-result
CN(C)/N=N/c1[nH]cnc1C(N)=O | WPMY1-TP53BP1-CLTA | 0
COc1c(O[C@@H]2O[C@H](CO)[C@@H](O)[C@H](O)[C@H]2O)cc2c(c1OC)-c1ccc(SC)c(=O)cc1[C@@H](NC(C)=O)CC2 [Thiocolchicoside] | WPMY1-TP53BP1-CLTA | 0
Cc1noc(C)c1-c1ccc2c(c1)nc(CCc1ccc(OCCCN(C)C)cc1)n2CCN1CCOCC1 | WPMY1-TP53BP1-CLTA | 1
COc1ccc2[nH]c(S(=O)Cc3ncc(C)c(OC)c3C)nc2c1 (stereo unspecified) | WPMY1-TP53BP1-CLTA | 0
CCOC(=O)CCNc1cc(N2CCc3ccccc3CC2)nc(-c2cccnc2)n1 | WPMY1-TP53BP1-CLTA | 0
CC1(C)O[C@@H]2C[C@H]3[C@@H]4C[C@H](F)C5=CC(=O)C=C[C@]5(C)[C@@]4(F)[C@@H](O)C[C@]3(C)[C@]2(C(=O)CO)O1 [fluocinolone acetonide] | WPMY1-TP53BP1-CLTA | 0
O=C(O)CCN(O)C(=O)CCCCCCCCC1CC1 | WPMY1-TP53BP1-CLTA | 0
CCC(NC(C)C)C(O)c1ccc(O)c(O)c1 (stereo unspecified) | WPMY1-TP53BP1-CLTA | 0
CC(C)(Sc1ccc(CCN(CCCCC2CCCCC2)C(=O)NC2CCCCC2)cc1)C(=O)O | WPMY1-TP53BP1-CLTA | 0
c1cc(-c2cc(C3CCNCC3)[nH]n2)ccn1 | WPMY1-TP53BP1-CLTA | 0
Cn1cnc(N)c2ncnc1-2 | WPMY1-TP53BP1-CLTA | 0
CCOc1ccccc1OCCN[C@H](C)Cc1ccc(OC)c(S(N)(=O)=O)c1 | WPMY1-TP53BP1-CLTA | 0
COCc1c(C(C)C)nc(C(C)C)c(/C=C/[C@@H](O)C[C@@H](O)CC(=O)O)c1-c1ccc(F)cc1 | WPMY1-TP53BP1-CLTA | 1
NC(=O)OCC(COC(N)=O)c1ccccc1 [felbamate] | WPMY1-TP53BP1-CLTA | 0
CN(C)CCC[C@@]1(c2ccc(F)cc2)OCc2cc(C#N)ccc21 | WPMY1-TP53BP1-CLTA | 0
C[C@H](Cc1cc2c(c(C(N)=O)c1)N(CCCO)CC2)NCCOc1ccccc1OCC(F)(F)F | WPMY1-TP53BP1-CLTA | 0
O=c1c(-c2ccc(O)cc2)coc2cc(O[C@@H]3O[C@H](CO)[C@@H](O)[C@H](O)[C@H]3O)cc(O)c12 | WPMY1-TP53BP1-CLTA | 1
NC(=O)[C@@H](CCC(F)(F)F)N(Cc1ccc(-c2ncon2)cc1F)S(=O)(=O)c1ccc(Cl)cc1 | WPMY1-TP53BP1-CLTA | 0
NCC[C@H](O)C(=O)N[C@H]1C[C@@H](N)[C@H](O[C@H]2O[C@H](CN)[C@@H](O)[C@H](O)[C@H]2O)[C@@H](O)[C@@H]1O[C@H]1O[C@H](CO)[C@@H](O)[C@H](N)[C@H]1O [Amikacin hydrate] | WPMY1-TP53BP1-CLTA | 0
O=C(Nc1ccc(-c2ccnc(Nc3ccc(N4CCOCC4)cc3)n2)cc1)[C@@H]1CCCN1 | WPMY1-TP53BP1-CLTA | 1
CCCCCCCCCCNCCSSCc1ccc(Cl)cc1 | WPMY1-TP53BP1-CLTA | 1
CCOC(=O)[C@H](CCc1ccccc1)N[C@@H](C)C(=O)N1Cc2ccccc2C[C@H]1C(=O)O | WPMY1-TP53BP1-CLTA | 0
COc1cc(C#N)ccc1S(=O)(=O)Nc1ccc2c(c1)cc(C)c(=O)n2C | WPMY1-TP53BP1-CLTA | 0
CCc1c(C(=O)Nc2cc(S(=O)(=O)N(CC)CC)ccc2O)[nH]c(C)c1C(C)=O | WPMY1-TP53BP1-CLTA | 0
CCN[C@H]1C[C@H](C)S(=O)(=O)c2sc(S(N)(=O)=O)cc21 [dorzolamide] | WPMY1-TP53BP1-CLTA | 0
O=[N+]([O-])c1c(Nc2cc(F)cc(Cl)c2)ccc2nonc12 | WPMY1-TP53BP1-CLTA | 0
